Numbers sourced from PubChem BioAssay AID1845208.

# Tested on: NCI-H196 SCLC complex tumor spheroid viability
# TEST_DESCRIPTION: Anticancer human tumor NCI-H196 cell line growth inhibition;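 further: spheroids exposed to compounds for 7 days before readout; 100% = DMSO vehicle control wells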
# ASSAY_SETUP: second compound 31.6 µM; first compound 0.3 µM; stronger effect = lower value
# Experimental: Multicellular complex tumor spheroid response to DNA repair inhibitors in combination with DNA-damaging drugs This study explores the anticancer activities of DNA-damaging drugs and inhibitors of DNA damage repair, both as single agents and in combinations. […] Twenty-six patient-derived or established malignant cell lines were evaluated representing sarcoma, melanoma, small cell lung cancer (SCLC), non-small cell lung cancer (NSCLC), as well as bladder, ovarian and pancreatic cancers. […]
REPORTED_ENDPOINT: viability, T/C

[[record]]
molecule = "Cc1sc2c(c1C)C(c1ccc(Cl)cc1)=NC(CC(=O)Nc1ccc(O)cc1)c1nnc(C)n1-2 (centres undefined) + Cn1nnc2c(C(N)=O)ncn2c1=O"
tgt = "NCI-H196 SCLC complex tumor spheroid viability"
measured_value = "87.1%"

[[record]]
molecule = "Cn1ncnc1[C@H]1c2n[nH]c(=O)c3cc(F)cc(c23)N[C@@H]1c1ccc(F)cc1 + Cn1nnc2c(C(N)=O)ncn2c1=O"
tgt = "NCI-H196 SCLC complex tumor spheroid viability"
measured_value = "93.2%"

[[record]]
molecule = "O=C(c1cc(Cc2n[nH]c(=O)c3ccccc23)ccc1F)N1CCN(C(=O)C2CC2)CC1 + Cn1nnc2c(C(N)=O)ncn2c1=O"
tgt = "NCI-H196 SCLC complex tumor spheroid viability"
measured_value = "101%"

[[record]]
molecule = "CNCc1ccc(-c2cc(-c3nc(-c4ccc(S(=O)(=O)C(C)C)cc4)cnc3N)on2)cc1 + Cn1nnc2c(C(N)=O)ncn2c1=O"
tgt = "NCI-H196 SCLC complex tumor spheroid viability"
measured_value = "105%"


----------
Recorded viability, T/C by entry
# Test system: NCI-H196 SCLC complex tumor spheroid viability
# TEST_DESCRIPTION: Anticancer human tumor NCI-H196 cell line growth inhibition;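 further: spheroids exposed to compounds for 7 days before readout; 100% = DMSO vehicle control wells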
# ASSAY_SETUP: second compound 0.03 µM; first compound 0.1 µM; stronger effect = lower value
REPORTED_ENDPOINT: viability, T/C (%)

[[record]]
molecule = "Cc1cc(C)c(CNC(=O)c2cc(-c3ccc(CN4CCOCC4)cc3)cc3c2cnn3C2CCCC2)c(=O)[nH]1 + CC[C@@]1(O)C(=O)OCc2c1cc1n(c2=O)Cc2cc3c(CN(C)C)c(O)ccc3nc2-1"
reported_endpoint = "viability, T/C"
measured_value = 96.1

[[record]]
molecule = "CC(C)n1c(=O)n(C)c2cnc3cc(F)c(-c4ccc(OCCCN5CCCCC5)nc4)cc3c21 + CC[C@@]1(O)C(=O)OCc2c1cc1n(c2=O)Cc2cc3c(CN(C)C)c(O)ccc3nc2-1"
reported_endpoint = "viability, T/C"
measured_value = 102

[[record]]
molecule = "COc1ccc([C@@H](O)c2cc(-c3ncnc4cc(N5CCOCC5)ccc34)c(F)cc2Cl)nn1 + CC[C@@]1(O)C(=O)OCc2c1cc1n(c2=O)Cc2cc3c(CN(C)C)c(O)ccc3nc2-1"
reported_endpoint = "viability, T/C"
measured_value = 92.3

[[record]]
molecule = "CC1COCCN1c1cc(-c2ccnn2C)c2ccnc(-c3ccn[nH]3)c2n1 (stereo unspecified) + CC[C@@]1(O)C(=O)OCc2c1cc1n(c2=O)Cc2cc3c(CN(C)C)c(O)ccc3nc2-1"
reported_endpoint = "viability, T/C"
measured_value = 64.9

[[record]]
molecule = "COc1cc(C)[nH]c(=O)c1CN1CCc2c(Cl)cc(C(OC)C3COC3)c(Cl)c2C1=O (stereo unspecified) + CC[C@@]1(O)C(=O)OCc2c1cc1n(c2=O)Cc2cc3c(CN(C)C)c(O)ccc3nc2-1"
reported_endpoint = "viability, T/C"
measured_value = 93.5

[[record]]
molecule = "[2H]c1nc(C)nc([2H])c1-c1cc(NC[C@@H](C)c2cccc3c(C(=O)NC)ccnc23)ncn1 + CC[C@@]1(O)C(=O)OCc2c1cc1n(c2=O)Cc2cc3c(CN(C)C)c(O)ccc3nc2-1"
reported_endpoint = "viability, T/C"
measured_value = 102

